The measured values listed here are drawn from PubChem BioAssay AID1259407.

System: CCRIS mutagenicity, Ames/micronucleus/aberration tests
protocol.description: CCRIS mutagenicity studies
condition.description: Test System: CHINESE HAMSTER OVARY; Strain/Indicator: CHO-K1-BH4 (HGPRT); Metabolic Activation: NONE; Method: SUSPENSION/PLATE
Activity calls are given as the source filed them. No rule for the calls is given here.
observable: mutagenic call

smiles.str: F
observable: mutagenic call
result: inactive; negative

smiles.str: CN(N=O)C(N)=O
observable: mutagenic call
result: active; positive

smiles.str: COS(C)(=O)=O
observable: mutagenic call
result: active; positive

smiles.str: c1cc2ccc3cccc4ccc(c1)c2c34
observable: mutagenic call
result: inactive; negative

smiles.str: Nc1cccc([N+](=O)[O-])c1N
observable: mutagenic call
result: active; positive

====

Test system: CCRIS mutagenicity, Ames/micronucleus/aberration tests
protocol.description: CCRIS mutagenicity studies
condition.description: Test System: AMES SALMONELLA TYPHIMURIUM; Strain/Indicator: TA100; Metabolic Activation: RAT, LIVER, S-9, PHENOBARBITAL; Method: STANDARD PLATE
Active and inactive are the calls of the source. How the calls were made is not given here.
Classes used: active, inactive

compound: COc1ccc(O)c2c(=O)c3c(OC)cc4c(c3oc12)[C@@H]1C=CO[C@@H]1O4
test.target: CCRIS mutagenicity, Ames/micronucleus/aberration tests
classification: active
//
compound: COP(=S)(OC)SCN1C(=O)c2ccccc2C1=O
test.target: CCRIS mutagenicity, Ames/micronucleus/aberration tests
classification: active
//
compound: Nc1ccc2c(c1)[nH]c1ccccc12
test.target: CCRIS mutagenicity, Ames/micronucleus/aberration tests
classification: active
//
compound: Cn1c2ccccc2c(=O)c2c(O)cc3c(c21)CC(C1(C)CO1)O3 (stereo not drawn)
test.target: CCRIS mutagenicity, Ames/micronucleus/aberration tests
classification: active
//
compound: Nc1cccc2cc3ccccc3cc12
test.target: CCRIS mutagenicity, Ames/micronucleus/aberration tests
classification: active
//
compound: CNc1nncc2ccccc12
test.target: CCRIS mutagenicity, Ames/micronucleus/aberration tests
classification: active
//
compound: CC(=O)Nc1ccc2[nH]c3ccccc3c2c1[N+](=O)[O-]
test.target: CCRIS mutagenicity, Ames/micronucleus/aberration tests
classification: inactive
//
compound: N1=NC2[C@@H]3O[C@@H]3C1[C@H]1O[C@@H]21
test.target: CCRIS mutagenicity, Ames/micronucleus/aberration tests
classification: inactive
//
compound: COc1cccc2c1CC([N+](=O)[O-])c1ccc3c(c1-2)OCO3 (stereo not drawn)
test.target: CCRIS mutagenicity, Ames/micronucleus/aberration tests
classification: active
//
compound: COc1cc2c(c3oc4cccc(O)c4c(=O)c13)[C@@H]1CCO[C@@H]1O2
test.target: CCRIS mutagenicity, Ames/micronucleus/aberration tests
classification: inactive
//
compound: CN(N=O)C(N)=O
test.target: CCRIS mutagenicity, Ames/micronucleus/aberration tests
classification: active
//
compound: F
test.target: CCRIS mutagenicity, Ames/micronucleus/aberration tests
classification: inactive
//
compound: Cl/C=C(\Cl)COCCCl
test.target: CCRIS mutagenicity, Ames/micronucleus/aberration tests
classification: active

====

System: CCRIS mutagenicity, Ames/micronucleus/aberration tests
protocol.description: CCRIS mutagenicity studies
condition.description: Test System: E. COLI; Strain/Indicator: WP2 UVRA (PKM101); Metabolic Activation: NONE; Method: STANDARD PLATE
Activity calls are given as the source filed them. No rule for the calls is given here.
Possible outcomes: Yes for active, No for inactive

smiles.str: CCn1cc(C(=O)O)c(=O)c2ccc(C)nc21
classification: Yes
//
smiles.str: CCOP(=O)(OCC)OCC
classification: No
//
smiles.str: COc1cccc2c1C(=O)c1c(O)c3c(c(O)c1C2=O)C[C@@](O)(C(C)=O)C[C@@H]3O[C@H]1C[C@H](N)[C@H](O)[C@H](C)O1
classification: Yes
//
smiles.str: C=O
classification: Yes
//
smiles.str: BrCCBr
classification: Yes
